What Cell viability (%) Calvarial cell was measured for each of the following?
tested on: Osteoblasts (Calvarial cells); settings: ICR, mouse, 72 h, 1 μM
One number for each entry, in %.

Examples with their reported Cell viability (%) Calvarial cell follow.
- COMPOUND_SMILES: "CN1CCN(c2ccc([N+](=O)[O-])c(Nc3ccc(F)c(F)c3)n2)CC1"
  EXPERIMENTAL_SYSTEM: "Osteoblasts (Calvarial cells)"
  MEASUREMENT_UNIT: "%"
  Cell viability (%) Calvarial cell: 87
- COMPOUND_SMILES: "CNc1ccc([N+](=O)[O-])c(Nc2cccc(N)c2)n1"
  EXPERIMENTAL_SYSTEM: "Osteoblasts (Calvarial cells)"
  MEASUREMENT_UNIT: "%"
  Cell viability (%) Calvarial cell: 105
- COMPOUND_SMILES: "O=[N+]([O-])c1ccc(N2CCC(O)CC2)nc1Nc1ccc(-n2ccnc2)cc1"
  EXPERIMENTAL_SYSTEM: "Osteoblasts (Calvarial cells)"
  MEASUREMENT_UNIT: "%"
  Cell viability (%) Calvarial cell: 106
- COMPOUND_SMILES: "Nc1ccc(Nc2nc(NCCCn3ccnc3)ccc2[N+](=O)[O-])cc1"
  EXPERIMENTAL_SYSTEM: "Osteoblasts (Calvarial cells)"
  MEASUREMENT_UNIT: "%"
  Cell viability (%) Calvarial cell: 111
- COMPOUND_SMILES: "CC(C)CNc1ccc([N+](=O)[O-])c(Nc2ccc(N)cc2)n1"
  EXPERIMENTAL_SYSTEM: "Osteoblasts (Calvarial cells)"
  MEASUREMENT_UNIT: "%"
  Cell viability (%) Calvarial cell: 99
- COMPOUND_SMILES: "O=[N+]([O-])c1ccc(N2CCOCC2)nc1Nc1ccc(F)c(F)c1"
  EXPERIMENTAL_SYSTEM: "Osteoblasts (Calvarial cells)"
  MEASUREMENT_UNIT: "%"
  Cell viability (%) Calvarial cell: 88

Batch request: Cell viability (%) Calvarial cell per item, same order as input.
1. Cc1ccc(Nc2nc(NC(C)C)ccc2[N+](=O)[O-])cc1
2. O=[N+]([O-])c1ccc(N2CCNCC2)nc1Nc1ccc(-c2csc(C3CCCCC3)n2)cc1
3. CC(C)CNc1ccc([N+](=O)[O-])c(Nc2ccc(C#N)cc2)n1
4. O=[N+]([O-])c1ccc(N2CCC(O)CC2)nc1Nc1ccc(N2CCOCC2)cc1

1. 104
2. 88
3. 100
4. 103
